TARGET_UNDER_TEST: STING H232R-variant (Homo sapiens, UniProt Q86WV6, H232R)
Sequence (Q86WV6 whole entry H232R): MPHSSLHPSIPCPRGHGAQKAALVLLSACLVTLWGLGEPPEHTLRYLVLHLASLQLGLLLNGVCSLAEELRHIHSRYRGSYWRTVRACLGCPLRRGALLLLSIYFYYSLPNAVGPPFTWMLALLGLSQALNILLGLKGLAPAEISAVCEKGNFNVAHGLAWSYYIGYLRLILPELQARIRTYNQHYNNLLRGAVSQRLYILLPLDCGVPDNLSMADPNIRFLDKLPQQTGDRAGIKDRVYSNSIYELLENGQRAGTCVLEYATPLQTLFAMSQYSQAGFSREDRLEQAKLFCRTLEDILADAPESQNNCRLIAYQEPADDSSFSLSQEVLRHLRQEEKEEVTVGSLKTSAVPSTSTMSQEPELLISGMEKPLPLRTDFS
PROCEDURE_TEXT: IRF-inducible SEAP reporter assay in THP1-Blue ISG cells, STING H232R-variant
CONDITION_DESCRIPTION: STING H232R-variant (WT), 24 hours incubation
ATTRIBUTE_MEASURED: EC50 (nM)

Field: example entries. Status: answers known.
COMPOUND	TARGET_UNDER_TEST	EC50, nM
Cn1cc2c(-c3nn(-c4ccc(N5CC6C(C5)C6C(=O)O)nc4)c4c(Cl)cccc34)cccc2n1 (stereo not shown)	STING H232R-variant (Homo sapiens, UniProt Q86WV6, H232R)	200
Cc1cccc2c(-c3cccc4nn(C)cc34)nn(-c3ccc(N4CCN(C(N)=O)CC4)nc3)c12	STING H232R-variant (Homo sapiens, UniProt Q86WV6, H232R)	200

[P] COC(=O)C1C2CN(c3ccc(-n4nc(-c5cccc6nn(C)cc56)c5cccc(C)c54)cn3)CC21 (stereo not shown)
[Q] Cc1cccc2c(-c3cccc4nn(C)cc34)nn(-c3ccc(N4CC5C(C4)C5C(N)=O)nc3)c12 (stereo not shown)
Ask: For the pair P and Q , which member has the lower EC50 number? State the label of the item chosen.
Result: P

Values were extracted from patent US12065427B2.
